- measuredTarget: T1, HisCD74v1 (recombinant extracellular domain of human CD74 variant 1, N-terminal hexameric His tag) (human, UniProt P04233 73-296)
- T1 construct: also called recombinant CD74v1; CD74v1 extracellular domain
- T1 sequence: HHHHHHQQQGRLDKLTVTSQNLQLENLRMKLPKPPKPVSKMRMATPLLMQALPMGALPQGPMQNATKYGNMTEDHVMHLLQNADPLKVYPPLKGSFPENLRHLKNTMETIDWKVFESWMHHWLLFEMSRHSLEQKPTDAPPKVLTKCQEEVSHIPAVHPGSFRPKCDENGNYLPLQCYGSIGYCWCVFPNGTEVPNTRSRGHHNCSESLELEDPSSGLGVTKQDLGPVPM
- assayProcedure: ELISA, coated recombinant CD74v1 extracellular domain (CD74ECDHis); mean of four experiments
- Description: ELISA plates (Greiner BioOne) were coated with 2 μg/mL, 100 μL per well, recombinant CD74ECDHis in PBS (B. Braun Melsungen AG) at 4° C., 0/N. ELISA plates were emptied and blocked with 200 μL/well PBS containing 0.05% Tween-20 (PBST) while shaking (300 rpm), at RT for 1 hour, washed three times with 300 μL PBST and emptied. […] Plates were measured at OD 405 nm in an ELISA reader (Biotek Instruments, EL808 Absorbance Microplate Reader). […]
readout: EC50 (µg/mL)
One number for each entry, in µg/mL.

Reference set (2 entries):
[[record]]
binder = "HuMab-CD74-005-vcMMAE (antibody, IgG1, V domains shown, drug-linker vcMMAE alkylated to the cysteines of the reduced antibody (DAR 3.9-4.0), Antibody-drug conjugate of HuMab-CD74-005 (IgG1,kappa); also called vcMMAE-conjugate of HuMab-CD74-005) VH: QVQLVESGGGVVQPGRSLRLSCAASGFTFSSYAMHWVRQAPGKGLEWVAVISYDGSNKYYADSVKGRFTISRDNSKNTLYLQMNSLRAEDTAVYYCASGRYYGSGSYSSYFDYWGQGTLVTVSS VL: DIQMTQSPSSLSASVGDRVTITCRASQGISSWLAWFQQKPEKAPKSLIYAASSLQSGVPSRFSGSGSGTDFTLTISSLQPEDFATYYCQQYNSYPLTFGGGTKVEIK"
readout = "EC50"
quantitativeresult = 0.04

[[record]]
binder = "HuMab-CD74-006 (antibody, human IgG1, V domains shown, Human IgG1,kappa antibody produced transiently in HEK-293F cells; also called antibody 006) VH: QVQLVESGGGVVQPGRSLRLSCAASGFTFSSYAMHWVRQAPGKGLEWVAVISYDGSIKYYADSVKGRFTISRDNSKNTLYLQMNSLRVEDTAVFYCARGREITSQNIVILLDYWGQGTLVTVTS VL: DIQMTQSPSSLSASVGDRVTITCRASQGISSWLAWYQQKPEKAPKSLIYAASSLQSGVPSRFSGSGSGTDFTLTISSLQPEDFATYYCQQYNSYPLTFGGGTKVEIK"
readout = "EC50"
quantitativeresult = 0.02


Here is the next item to consider.
What value of measured EC50 is listed for HuMab-CD74-005-mcMMAF (antibody, IgG1, V domains shown, drug-linker mcMMAF alkylated to the cysteines of the reduced antibody (DAR 3.9-4.0), Antibody-drug conjugate of HuMab-CD74-005 (IgG1,kappa); also called mcMMAF-conjugate of HuMab-CD74-005) VH: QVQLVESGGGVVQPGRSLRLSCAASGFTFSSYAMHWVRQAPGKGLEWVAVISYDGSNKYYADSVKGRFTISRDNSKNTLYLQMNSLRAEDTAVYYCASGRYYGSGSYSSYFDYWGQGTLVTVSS VL: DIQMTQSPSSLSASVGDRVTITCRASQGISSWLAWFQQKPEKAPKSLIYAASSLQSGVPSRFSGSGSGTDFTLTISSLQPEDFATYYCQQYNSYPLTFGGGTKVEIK ?
0.04
